condition summary: not told
experimental readout: Permeability (vitelline membrane)

{"compound": "C=C[C@H]1C[N@@]2CC[C@H]1C[C@H]2[C@H](O)c1ccnc2ccc(OC)cc12", "experimental readout": "Permeability (vitelline membrane)", "result": "−"}
{"compound": "CCN(Cc1cccc(S(=O)(=O)[O-])c1)c1ccc(C(=C2C=CC(=[N+](CC)Cc3cccc(S(=O)(=O)[O-])c3)C=C2)c2ccccc2S(=O)(=O)[O-])cc1.[Na+].[Na+]", "experimental readout": "Permeability (vitelline membrane)", "result": "−"}
{"compound": "O=C1OC2(c3ccc(O)cc3Oc3cc(O)ccc32)c2ccccc21", "experimental readout": "Permeability (vitelline membrane)", "result": "−"}
{"compound": "CCO", "experimental readout": "Permeability (vitelline membrane)", "result": "+"}
{"compound": "CC(=O)Nc1ccc(O)cc1", "experimental readout": "Permeability (vitelline membrane)", "result": "+"}
{"compound": "CN(C)c1ccc(/N=N/c2ccccc2C(=O)O)cc1", "experimental readout": "Permeability (vitelline membrane)", "result": "−"}
{"compound": "Cc1cc(C2(c3ccc(O)c(C)c3)OS(=O)(=O)c3ccccc32)ccc1O", "experimental readout": "Permeability (vitelline membrane)", "result": "−"}
